Source listed as PubChem BioAssay AID1347418.

# measured_on: Sulfhydryl oxidase 1 (Homo sapiens)
# measurement_notes: QSOX1 enzyme inhibitors, primary screen, biochemical, ROS-Glo H2O2 luminescence, HTS (AID 1347418)
# condition_context: recombinant QSOX1, ROS-Glo H2O2 luminescence; at 12.5 µM; stronger effect = higher value; active = any value above zero
In all, about 1,300 compounds went through this assay and about 750 (58%) were called active. Some of the results follow.
measured_metric: inhibition (%)
Give bare numbers, in %.

Before answering, review these 2 worked examples.
- compound: "O=C1O/C(=C/Br)CCC1c1cccc2ccccc12 (stereo not drawn)"
  measured_on: "Sulfhydryl oxidase 1 (Homo sapiens)"
  measurement_unit: "%"
  inhibition: 2.5
- compound: "C=C1N=C(N=NC2=C(S(=O)(=O)[O-])[C+]=C(S(=O)(=O)[O-])[C+]=C2)[C+](COP(=O)([O-])O)C(C=O)=C1O"
  measured_on: "Sulfhydryl oxidase 1 (Homo sapiens)"
  measurement_unit: "%"
  inhibition: -3.7

Report inhibition for each item below.
1. C/C(=C\c1ccc(C(=O)O)cc1)c1ccc2c(c1)C(C)(C)CCC2(C)C
2. N=C(N)SCCc1ccc(CCSC(=N)N)cc1
3. CN1CCc2cc(O)c(O)cc2C(c2ccccc2)C1 (stereo not drawn)
4. CC(C)(Sc1ccc(CCN(CCCCC2CCCCC2)C(=O)NC2CCCCC2)cc1)C(=O)O
5. CCCN(CC1CC1)c1nc(C)nc(Nc2c(Cl)cc(Cl)cc2Cl)c1Cl

**Result**
1. 1.8
2. -2.2
3. 14.7
4. 0.8
5. 0.1

// input: 5 compounds below; output: inhibition for each
1. CN(C)C(N)=NCCC[C@H](N)C(=O)O
2. N=C(N)SCCN
3. COc1ccccc1N1CCN(CCN(C(=O)c2ccc(I)cc2)c2ccccn2)CC1
4. O=c1[nH]c2cc(C(F)(F)F)ccc2n1-c1cc(C(F)(F)F)ccc1O
5. NCC(O)(CS(=O)(=O)O)c1ccc(Cl)cc1 (stereo not drawn)

**Result**
1. 0.3
2. 6.4
3. 11.2
4. 1.4
5. 7.3

Record inhibition per entry; entries follow.
1. N[C@H](C(=O)O)[C@H]1C[C@@H]1C(=O)O
2. Cc1cn[nH]c1
3. CC1(C)CCC=[N+]1[O-]
4. NCCSSCCN
5. CC(C)(C)NCC(O)COc1cccc2[nH]c(=O)[nH]c12 (stereo not drawn)
6. CN1CCc2ccccc2Cc2[nH]c3ccccc3c2CC1
7. O=C(O)c1cc(=O)c2ccccc2[nH]1
8. CC(CCc1ccc(O)cc1)NCCc1ccc(O)c(O)c1 (stereo not drawn)

**Result**
1. 0.2
2. 1.9
3. -1.5
4. 10.5
5. 0.2
6. 6.3
7. 5.6
8. 17.1

For every item below, please supply its inhibition.
1. Nc1nc(N)c(N=O)c(OCC2CCCCC2)n1
2. C1COC(NC(C2CC2)C2CC2)=N1
3. CN(C)CCCc1cc(C(=O)Nc2ccc(-c3ccncc3)cc2)ccc1O
4. Clc1ccc2c(c1)C(N1CCNCC1)=Nc1ccccc1O2
5. O=C(CCCN1CCC(O)(c2ccc(Cl)cc2)CC1)c1ccc(F)cc1
6. O=C(OCCN1CCOCC1)C1(c2ccccc2)CCCCC1

**Result**
[20.8, 0.6, 2.5, 2.5, -4, 2.5]

Here are 2 compounds. What values of inhibition were reported for them?
1. C(=C\c1ccccc1)/CN1CCN(C(c2ccccc2)c2ccccc2)CC1
2. CN1CCc2cc(Cl)c(O)cc2[C@@H](c2ccccc2)C1

**Result**
1. 4.9
2. 10.2

----------
# measured_on: Sulfhydryl oxidase 1 (Homo sapiens) (UniProt O00391)
# Sequence (O00391 whole entry, looked up): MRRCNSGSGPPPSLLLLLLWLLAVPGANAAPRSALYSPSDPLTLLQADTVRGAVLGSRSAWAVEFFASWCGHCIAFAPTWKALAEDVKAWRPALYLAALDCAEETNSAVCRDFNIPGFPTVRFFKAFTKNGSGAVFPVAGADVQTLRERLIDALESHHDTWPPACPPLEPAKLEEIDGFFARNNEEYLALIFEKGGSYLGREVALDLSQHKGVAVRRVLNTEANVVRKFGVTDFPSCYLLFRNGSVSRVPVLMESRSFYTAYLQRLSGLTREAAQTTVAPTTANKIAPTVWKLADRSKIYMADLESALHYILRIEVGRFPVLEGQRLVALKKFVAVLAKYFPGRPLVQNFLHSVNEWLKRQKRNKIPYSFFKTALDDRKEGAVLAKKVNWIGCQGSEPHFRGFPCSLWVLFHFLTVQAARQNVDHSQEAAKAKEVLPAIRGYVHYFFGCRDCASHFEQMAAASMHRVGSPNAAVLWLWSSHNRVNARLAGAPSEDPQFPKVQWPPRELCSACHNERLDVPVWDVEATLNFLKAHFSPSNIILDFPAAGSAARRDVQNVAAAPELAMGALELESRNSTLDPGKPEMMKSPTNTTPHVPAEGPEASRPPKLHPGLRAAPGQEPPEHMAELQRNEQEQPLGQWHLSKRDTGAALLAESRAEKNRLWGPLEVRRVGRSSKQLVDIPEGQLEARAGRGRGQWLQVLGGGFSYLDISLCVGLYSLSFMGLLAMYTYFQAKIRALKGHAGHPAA
# measurement_notes: QSOX1 enzyme inhibitors, primary screen, biochemical, ROS-Glo H2O2 luminescence, HTS (AID 1347418)
# condition_context: recombinant QSOX1, ROS-Glo H2O2 luminescence; at 12.5 µM; stronger effect = higher value; active = any value above zero
The whole screen tested about 1,300 compounds, of which about 750 (58%) were called active. The list shows a part of the results.
Just give me one of these, please: T for active, F for inactive

- compound: "NC(N)=Nc1nc(CSCC/C(N)=N/S(N)(=O)=O)cs1"
  category_label: "T"
- compound: "O=C(CCCN1CCC(O)(c2cccc(C(F)(F)F)c2)CC1)c1ccc(F)cc1"
  category_label: "F"
- compound: "O.O.[NH2-].[NH2-].[NH2-].[NH2-].[NH2-].[NH2-].[NH2-].[NH2-].[NH2-].[NH2-].[NH2-].[NH2-].[NH2-].[NH2-].[Ru].[Ru].[Ru]"
  category_label: "T"

**Query** // outcome(item) with item = O=C1OC(=O)C2C3CCC(O3)C12 (stereo not drawn)
**Result** F

**Query** What outcome does the record of this test show for O=C1Nc2ccc(I)cc2/C1=C/c1cc(Br)c(O)c(Br)c1 ?
**Result** T

**Query** What was the test verdict on CCCCCCCCCCCCCCSCC(=O)O ?
**Result** F

**Query** Recorded test call requested for c1ccc(C(NCc2cccnc2)(c2ccccc2)c2ccccc2)cc1
**Result** F

**Query** Look up the recorded call for CC(C)Cc1ccc([C@H](C)C(=O)O)cc1 in this test.
**Result** F

**Query** Any idea what this test logged for CC(=O)/C=C1\C(=O)N(C)c2ccccc21 ?
**Result** T

**Query** Any idea what this test logged for CCOC(=O)[C@H](CCc1ccccc1)N[C@@H](C)C(=O)N1[C@H](C(=O)O)C[C@H]2CCCC[C@@H]21 ?
**Result** T

**Query** What outcome does the record of this test show for O=c1[nH]cc(F)c(=O)[nH]1 ?
**Result** T

**Query** // return assay outcome for CC(C)ON([C@@H](C(=O)NO)C(C)C)S(=O)(=O)c1ccc(-c2ccccc2)cc1
**Result** T

**Query** Could you kindly confirm the outcome this assay logged for NC(=O)c1ncn([C@@H]2O[C@H](CO)[C@@H](O)[C@H]2O)n1 ?
**Result** F

**Query** Please state the recorded outcome for this compound: Cn1cnc([N+](=O)[O-])c1Sc1ncnc2nc[nH]c12
**Result** T

**Query** Which outcome was assigned to CC(=O)/C(C)=N/O in this test?
**Result** F

**Query** Record request — test call for COc1cc(N)c(Cl)cc1C(=O)OCCN1CCCCC1
**Result** T

**Query** So what was the verdict on NCCCNCCSP(=O)(O)O in this test?
**Result** T

**Query** Hi, sorry to bother you, what did the test record for CC(C)Cc1ccc(C(C)C(=O)O)cc1 (stereo not drawn) ?
**Result** T

----------
Hi there, I'd appreciate the recorded inhibition for every entry that follows.
# measured_on: Sulfhydryl oxidase 1 (Homo sapiens) (UniProt O00391)
# measurement_notes: QSOX1 enzyme inhibitors, primary screen, biochemical, ROS-Glo H2O2 luminescence, HTS (AID 1347418)
# condition_context: recombinant QSOX1, ROS-Glo H2O2 luminescence; at 12.5 µM; stronger effect = higher value; active = any value above zero
The whole screen tested about 1,300 compounds, of which about 750 (58%) were called active. The list shows a part of the results.
Numbers only, in %.

Answered examples (6):
- molecule: "Nc1ncnc2n[nH]c(Nc3ccc(F)cc3)c12"
  measured_on: "Sulfhydryl oxidase 1 (Homo sapiens) (UniProt O00391)"
  inhibition / %: 19.7
- molecule: "N[C@@H]1CONC1=O"
  measured_on: "Sulfhydryl oxidase 1 (Homo sapiens) (UniProt O00391)"
  inhibition / %: -12.8
- molecule: "Cc1ccc(C(=O)Nc2ccc(S(=O)(=O)[O-])c3c2C(S(=O)(=O)[O-])=[C+]C(S(=O)(=O)O)=[C+]3)cc1NC(=O)c1cccc(NC(=O)Nc2cccc(C(=O)Nc3cc(C(=O)Nc4ccc(S(=O)(=O)[O-])c5c4C(S(=O)(=O)[O-])=[C+]C(S(=O)(=O)O)=[C+]5)ccc3C)c2)c1"
  measured_on: "Sulfhydryl oxidase 1 (Homo sapiens) (UniProt O00391)"
  inhibition / %: -5.3
- molecule: "C=C(C)C1CC=C(C(=O)O)CC1 (stereo unspecified)"
  measured_on: "Sulfhydryl oxidase 1 (Homo sapiens) (UniProt O00391)"
  inhibition / %: -1.3
- molecule: "CNC[C@H](O)c1ccc(O)c(O)c1"
  measured_on: "Sulfhydryl oxidase 1 (Homo sapiens) (UniProt O00391)"
  inhibition / %: 8.4
- molecule: "Nc1nc(Cl)nc2c1ncn2[C@@H]1O[C@H](CO)[C@H](O)C1O (stereo partly specified)"
  measured_on: "Sulfhydryl oxidase 1 (Homo sapiens) (UniProt O00391)"
  inhibition / %: -0.3

The following molecules each have a reported value; give each one's inhibition.
1. COc1ccc(/C=C/C(=O)Nc2ccccc2C(=O)O)cc1OC
2. CNC[C@H](O)c1cccc(O)c1
3. CCNc1nc2c(ncn2[C@H]2C[C@H](O)[C@@H](CO)O2)c(=O)[nH]1

**Result**
1: 23.4; 2: -3.5; 3: -0.7

Provide inhibition values for the following items, in order.
1. C1CCc2nnnn2CC1
2. CNCC(O)c1ccc(O)c(O)c1 (stereo unspecified)
3. Cc1nc2sccn2c(=O)c1CCN1CCC(=C(c2ccccc2)c2ccc(F)cc2)CC1
4. CCNC(=O)[C@H]1O[C@@H](n2cnc3c(N)nc(NCCc4ccc(CCC(=O)O)cc4)nc32)C(O)[C@H]1O (stereo partly specified)
5. CO/N=C(\C(=O)N[C@@H]1C(=O)N2C(C(=O)O)=C(COC(C)=O)CS[C@H]12)c1csc(N)n1
6. CNCCC=C1c2ccccc2CCc2ccccc21

**Result**
1. -0.2
2. 2.8
3. 1.2
4. 1.5
5. -6.9
6. 2.3

Answer for every listed entry: what is its inhibition? The entries follow.
1. C[C@](N)(Cc1ccc(O)c(O)c1)C(=O)O
2. N#Cc1cc([N+](=O)[O-])c2sc(C(N)=O)[n+]([O-])c2c1

**Result**
8.7
2.3

For the 3 molecules below, give their inhibition values.
1. CC(N)(Cc1ccc(O)c(O)c1)C(=O)O (stereo unspecified)
2. CC(C)(C)NCC(O)c1ccc(O)c(CO)c1 (stereo unspecified)
3. C=CCc1cccc(/C=N/NC(=O)CN2CCN(Cc3ccccc3)CC2)c1O

**Result**
1: 2.4; 2: 5.3; 3: -3.2

**Query** Item NS(=O)(=O)C#Cc1ccccc1 : provide inhibition
**Result** 0.5
